Attribute: EC50
Target: human S1PR5 (Homo sapiens)
Construct: host or cells: CHO-K1
Sequence (Q9H228 whole entry): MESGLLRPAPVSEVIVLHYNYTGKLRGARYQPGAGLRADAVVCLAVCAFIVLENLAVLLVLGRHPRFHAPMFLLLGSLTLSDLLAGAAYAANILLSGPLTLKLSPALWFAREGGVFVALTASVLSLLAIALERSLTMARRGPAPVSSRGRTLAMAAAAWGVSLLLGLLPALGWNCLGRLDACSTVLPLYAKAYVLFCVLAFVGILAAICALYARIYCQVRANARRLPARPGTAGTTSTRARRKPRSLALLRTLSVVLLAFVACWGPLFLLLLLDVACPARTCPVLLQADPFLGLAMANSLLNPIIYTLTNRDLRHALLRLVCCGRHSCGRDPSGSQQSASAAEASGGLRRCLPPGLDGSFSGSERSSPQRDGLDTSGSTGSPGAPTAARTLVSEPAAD
Assay: Intracellular Ca2+ release (FLIPR) agonist potency, S1P5
Type: cell-based
Conditions: recombinant CHO-K1 cells expressing human S1PR5, aequorin, Gq/i5; Calcium 5 FLIPR; read-out: S1P5 EC50 range

{"Compound": "O=C(O)COC1CCc2cc(OCc3cc(C(F)(F)F)ccc3F)ccc2C1 (stereo not drawn) [Compound 172]", "EC50": "1000 to 10000 nM"}

Prompt: For human S1PR5 (Homo sapiens), give the measured EC50 of the entry CCc1cccc(F)c1COc1ccc2c(c1)OCC(NC1(CC(=O)O)CCC1)C2 (stereo not drawn) [Compound 118]
Completion: < 10 nM

---

Attribute: pEC50
Target: human S1PR4 (Homo sapiens)
Construct: host or cells: CHO-K1
Test: Intracellular Ca2+ release (FLIPR) agonist potency, S1P4
Type: cell-based
Details: recombinant CHO-K1 cells expressing human S1PR4, aequorin, Gq/i5; Calcium 5 FLIPR; read-out: S1P4 EC50
pEC50: −log10 of the molar value.

Prompt: Supply measured pEC50 of O=C(O)C1CN(C2COc3cc(C#Cc4ccccc4C(F)(F)F)ccc3C2)C1 (stereo not drawn) in your reply.
Completion: < 6.00

Prompt: Supply measured pEC50 of O=C(O)C1CN(C2COc3cc(OCc4c(Cl)cccc4C4CC4)ccc3C2)C1 (stereo not drawn) in your reply.
Completion: > 6.00

Prompt: Supply measured pEC50 of COc1ccc(Cl)cc1COc1ccc2c(c1)CCC(OCC(=O)O)C2 (stereo not drawn) in your reply.
Completion: < 6.00

---

Molecular target: human S1PR4 (Homo sapiens, UniProt O95977)
Construct: host or cells: CHO-K1
Sequence (O95977 whole entry): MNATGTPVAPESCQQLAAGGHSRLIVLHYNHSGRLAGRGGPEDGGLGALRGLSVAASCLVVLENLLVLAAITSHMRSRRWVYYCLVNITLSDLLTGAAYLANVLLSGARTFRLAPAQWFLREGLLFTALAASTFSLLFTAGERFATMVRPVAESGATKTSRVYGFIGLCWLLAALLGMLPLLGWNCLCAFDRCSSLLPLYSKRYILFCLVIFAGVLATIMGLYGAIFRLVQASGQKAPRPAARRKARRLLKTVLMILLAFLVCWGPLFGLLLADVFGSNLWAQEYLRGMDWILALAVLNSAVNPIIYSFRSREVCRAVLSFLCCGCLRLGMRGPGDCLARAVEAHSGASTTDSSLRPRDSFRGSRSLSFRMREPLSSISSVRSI
Assay: Intracellular Ca2+ release (FLIPR) agonist potency, S1P4
Assay type: cell-based
Conditions: recombinant CHO-K1 cells expressing human S1PR4, aequorin, Gq/i5; Calcium 5 FLIPR; read-out: S1P4 EC50
Attribute: EC50

{"Compound": "O=C(O)C1CN(C2COc3cc(OCCc4ccccc4Cl)ccc3C2)C1 (stereo not drawn) [Compound 227]", "EC50": "> 1000 nM"}

Prompt: Supply measured EC50 of O=C(O)C1CN(C2COc3cc(CCc4cc(F)cc(F)c4)ccc3C2)C1 (stereo not drawn) [Compound 81] in your reply.
Completion: > 1000 nM

Prompt: Supply measured EC50 of O=C(O)C1CN(C2COc3cc(OCc4cccc(C(F)(F)F)c4F)ccc3C2)C1 (stereo not drawn) [Compound 94] in your reply.
Completion: > 1000 nM

Prompt: Supply measured EC50 of CCc1cccc(F)c1COc1ccc2c(c1)OCC(NC1(CC(=O)O)CC1)C2 (stereo not drawn) [Compound 129] in your reply.
Completion: > 1000 nM

---

Target: human S1PR5 (Homo sapiens)
Construct: host or cells: CHO-K1
Assay: Intracellular Ca2+ release (FLIPR) agonist potency, S1P5
Type: cell-based
Conditions: S1P5 EC50 range
Experimental: Agonistic activity was measured using the method described below. Intracellular Ca^2+ Release Agonist potency and intrinsic activity was assessed by measurement of intracellular Ca^2+ release. […] Phospho-fingolimod was used as positive control. […] Measurements were performed using a fluorometric imaging plate reader FLIPR®tetra (Molecular Devices). […]
pEC50: −log10 of the molar value.
Property Label: pEC50

Prompt: Supply measured pEC50 of CCc1cccc(Cl)c1COc1ccc2c(c1)CCC(NCc1cc(=O)[nH]o1)C2 (stereo not shown) [Compound 220] in your reply.
Completion: > 8.00
